Biological target: human recombinant 5-LOX (Homo sapiens)
Sequence (P09917 whole entry): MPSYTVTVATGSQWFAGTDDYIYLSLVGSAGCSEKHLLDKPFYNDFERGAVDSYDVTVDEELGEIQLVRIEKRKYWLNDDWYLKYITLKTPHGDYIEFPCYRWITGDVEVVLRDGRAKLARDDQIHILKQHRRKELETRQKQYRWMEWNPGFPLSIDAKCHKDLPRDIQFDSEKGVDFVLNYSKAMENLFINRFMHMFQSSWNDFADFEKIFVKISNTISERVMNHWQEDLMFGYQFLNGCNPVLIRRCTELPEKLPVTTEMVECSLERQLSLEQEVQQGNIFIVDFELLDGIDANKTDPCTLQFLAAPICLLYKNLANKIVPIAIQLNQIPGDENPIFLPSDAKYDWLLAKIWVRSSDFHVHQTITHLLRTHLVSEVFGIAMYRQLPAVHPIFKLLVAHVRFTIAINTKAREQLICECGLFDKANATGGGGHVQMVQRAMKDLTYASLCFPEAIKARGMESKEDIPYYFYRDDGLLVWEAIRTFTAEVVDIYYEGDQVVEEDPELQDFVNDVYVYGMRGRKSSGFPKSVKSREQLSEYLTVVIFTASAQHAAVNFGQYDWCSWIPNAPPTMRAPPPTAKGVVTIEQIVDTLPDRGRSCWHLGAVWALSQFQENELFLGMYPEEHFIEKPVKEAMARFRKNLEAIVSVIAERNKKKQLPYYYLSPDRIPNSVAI
Assay: Activity assay of isolated human recombinant 5-LOX (cell-free)
Conditions: cell-free assays, not further specified
quantity.kind: IC50

Reported IC50 of CC(C)c1ccc2c(c1)c(SC(C)(C)C)c(CC(C)(C)C(=O)O)n2Cc1ccc(Cl)cc1 : > 10 µM

====

System: 5-LOX activity in monocytes, neutrophils
Assay: cells
Settings: Homo sapiens, read-out: IC50 5-LOX activity in cell-based assays
quantity.kind: IC50 (nM)
# unit: nM | format: bare number

Reported IC50 of CC(c1cc2ccccc2s1)N(O)C(N)=O (stereo not shown) : 1500

====

System: 5-LOX product formation (FLAP) in human monocytes
Experiment: 5-LOX product formation in intact human monocytes stimulated with Ca2+-ionophore A23187
Format: cell-based
Details: Homo sapiens, Monocyte, 5 h, read-out: IC50, formation of LTB4 and its isomers and of 5-H(p)ETE (5-LOX product formation)
Description: Peripheral blood (University Hospital Jena, Germany) was collected from fasted healthy adult donors that were informed about the aim of the study and gave written consent. […] Human recombinant 5-LOX was expressed in E.coli BL21 transformed with pT3-5-LOX plasmid at 30 °C overnight as described before. […] After elution with methanol, samples were analyzed by RP-HPLC using a C-18 Radial-PAK column (Waters, Eschborn, Germany). […]
quantity.kind: IC50 (nM)
# unit: nM | format: bare number

Reported IC50 of Cc1cc(OCc2nc3ccccc3s2)ccc1NC(=O)Nc1ccc(Cl)c(Cl)c1 : 30

Source listed as paper PMC5571211.
